# procedure.summary: Pharmacokinetic study in Beagle dogs
# Format: in vivo
# particulars: dog, plasma, iv, I.V. (1 mg/kg), read-out: Vdss
outcome.measure: Vd (L/kg)
I only need the number, in L/kg, no unit after it.

Query [2H]C([2H])([2H])NC(=O)c1nnc(NC(=O)C2CC2)cc1Nc1cccc(-c2ncn(C)n2)c1OC [control, BMS-986165, reference compound] yields Vd of 2.27

###

# procedure.summary: Pharmacokinetic study in cynomolgus monkeys
# Type: in vivo
# particulars: cynomolgus monkey, plasma, iv, I.V. (1 mg/kg), read-out: Vdss
outcome.measure: Vd (L/kg)
Numbers only here, please. The scale is L/kg.

The molecule listed as [2H]C([2H])([2H])NC(=O)c1nnc(NC(=O)C2CC2)cc1Nc1cccc(-c2ncn(C)n2)c1OC [control, BMS-986165, reference compound] has a reported Vd of 1.2

###

# procedure.summary: Pharmacokinetic study in Sprague Dawley rats
# Format: in vivo
# particulars: rat, plasma, Oral (5 mg/kg)
outcome.measure: Cmax (ng/mL)
The response must be a number in ng/mL with no trailing unit.

[2H]C([2H])([2H])NC(=O)c1nnc(NC(=O)C2CC2)cc1Nc1cccc(-c2ncn(C)n2)c1OC [control, BMS-986165, reference compound] has a reported Cmax of 792

###

# procedure.summary: Pharmacokinetic study in C57BL/6 mice
# Format: in vivo, male C57BL/6 mice
# particulars: male, mouse, plasma, Oral (10 mg/kg), read-out: Cmax
outcome.measure: Cmax (ng/mL)
# value in ng/mL; strip the unit string

// Cmax value for [2H]C([2H])([2H])NC(=O)c1nnc(NC(=O)C2CC2)cc1Nc1cccc(-c2ncn(C)n2)c1OC [control, BMS-986165, reference compound] : 4700

###

# procedure.summary: Pharmacokinetic study in Beagle dogs
# Format: in vivo
# particulars: dog, plasma, iv, I.V. (1 mg/kg)
outcome.measure: clearance (mL/min/kg)
Express it in mL/min/kg; write the number only.

Data point: [2H]C([2H])([2H])NC(=O)c1nnc(NC(=O)C2CC2)cc1Nc1cccc(-c2ncn(C)n2)c1OC [control, BMS-986165, reference compound] ; clearance = 8.85

###

# procedure.summary: Pharmacokinetic study in cynomolgus monkeys
# Assay type: in vivo
# particulars: cynomolgus monkey, plasma, Oral (2 mg/kg), NA: no detectable, read-out: Cmax
outcome.measure: Cmax (ng/mL)
# unit: ng/mL | format: bare number

Documented Cmax of [2H]C([2H])([2H])NC(=O)c1nnc(NC(=O)C2CC2)cc1Nc1cccc(-c2ncn(C)n2)c1OC [control, BMS-986165, reference compound] : 247

###

# procedure.summary: Pharmacokinetic study in cynomolgus monkeys
# Format: in vivo
# particulars: Oral (2 mg/kg), NA: no detectable
Quick reference for F % among some compounds
Express your answer in %, writing the number without its unit.

[2H]C([2H])([2H])CC(=O)c1cnc(Nc2ccc(C(C)(C)O)c(F)n2)cc1Nc1nccc(-c2ncn(C([2H])([2H])[2H])n2)c1OC [Example 201]
4.67
[2H]C([2H])([2H])CC(=O)c1cnc(NC(=O)C2CC2)cc1Nc1nccc(-c2ncn(C([2H])([2H])[2H])n2)c1OC [Example 200]
27.7
[2H]C([2H])([2H])CC(=O)c1cnc(Nc2cccc(C#N)n2)cc1Nc1cccc(-c2ncn(C([2H])([2H])[2H])n2)c1OC [Example 198]
59.4

// switching to the query compound
Consider [2H]C([2H])([2H])CC(=O)c1cnc(NC(=O)C2CC2)cc1Nc1cccc(-c2ncn(C([2H])([2H])[2H])n2)c1OC [Example 195] . Its measured F % is 16.6
